Reference for the values: the supplement of paper PMC6555819

Test system: RARb:RXRa (NR concentration 270 nM, RXRa partner concentration 90 nM)
experiment-notes: PBM binding z-score (relative to random genomic background probes); higher = stronger binding; sequences stand for … in GC…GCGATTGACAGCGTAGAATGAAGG
value-type: PBM binding z-score
The response must contain the number and no unit.

Here are 3 sequences together with their reported answers.
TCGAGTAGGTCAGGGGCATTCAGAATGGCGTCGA :: 3.39
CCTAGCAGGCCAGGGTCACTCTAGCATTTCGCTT :: 2.52
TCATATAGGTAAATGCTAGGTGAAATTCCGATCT :: 0.363

Continue with the next sequence.
Query string: Which PBM binding z-score is reported for this sequence? "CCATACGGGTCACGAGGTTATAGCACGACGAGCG"
Result string: 4.62

====

Reported PBM binding z-score values for a set of sequences
Test system: RXRa homodimer (NR concentration 180 nM)
experiment-notes: PBM binding z-score (relative to random genomic background probes); higher = stronger binding; sequences stand for … in GC…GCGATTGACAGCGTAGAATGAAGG

Here are 5 sequences together with their reported answers.
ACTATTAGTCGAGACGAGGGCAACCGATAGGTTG :: 0.46
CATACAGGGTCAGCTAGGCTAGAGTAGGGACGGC :: 3.94
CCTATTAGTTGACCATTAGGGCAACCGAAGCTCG :: 0.374
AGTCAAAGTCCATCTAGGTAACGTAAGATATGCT :: -0.0358
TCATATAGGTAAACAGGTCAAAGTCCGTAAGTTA :: 3.59

Continue with the next sequence.
Query string: Return PBM binding z-score measured with RXRa homodimer (NR concentration 180 nM) given this sequence: "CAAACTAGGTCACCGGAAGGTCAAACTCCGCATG"
Result string: 6.33

====

Test system: PPARg DBDmut:RXRa IVT, anti-PPARg (DBD mutation: PPARg1 K132A/R137A, NR concentration 270 nM, RXRa partner concentration 90 nM)
experiment-notes: PBM binding z-score (relative to random genomic background probes); higher = stronger binding; sequences stand for … in GC…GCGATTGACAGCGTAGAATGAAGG
value-type: PBM binding z-score
The response must contain the number and no unit.

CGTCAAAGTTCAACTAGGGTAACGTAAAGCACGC :: 0.643
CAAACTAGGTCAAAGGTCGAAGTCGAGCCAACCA :: 5.32
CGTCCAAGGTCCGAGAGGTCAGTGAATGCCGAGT :: -1.25
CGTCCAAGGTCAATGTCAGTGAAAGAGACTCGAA :: -0.322
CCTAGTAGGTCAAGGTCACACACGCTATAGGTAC :: 1.56

Query string: Which PBM binding z-score is reported for this sequence? "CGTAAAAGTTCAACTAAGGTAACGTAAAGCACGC"
Result string: 1.17

Query string: Which PBM binding z-score is reported for this sequence? "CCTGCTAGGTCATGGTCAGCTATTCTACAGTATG"
Result string: -0.449

====

Tested on: PXR homodimer (NR concentration 270 nM)
experiment-notes: PBM binding z-score (relative to random genomic background probes); higher = stronger binding; sequences stand for … in GC…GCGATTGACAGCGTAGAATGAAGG
Rule: PBM binding z-score under 0.1 gives criterion not met, otherwise criterion met.

Use these answered entries as a reference point.
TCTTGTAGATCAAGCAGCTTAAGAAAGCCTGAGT :: criterion not met
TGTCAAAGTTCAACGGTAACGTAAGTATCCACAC :: criterion met
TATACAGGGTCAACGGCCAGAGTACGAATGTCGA :: criterion met
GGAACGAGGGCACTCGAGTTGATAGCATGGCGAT :: criterion not met
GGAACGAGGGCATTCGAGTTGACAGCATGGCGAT :: criterion met

Query string: Confirm if PBM binding z-score reported for the sequence "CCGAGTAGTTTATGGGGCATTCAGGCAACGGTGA" is 0.1 or above.
Result string: criterion not met

Query string: Confirm if PBM binding z-score reported for the sequence "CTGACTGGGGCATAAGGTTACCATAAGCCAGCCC" is 0.1 or above.
Result string: criterion not met

Query string: Confirm if PBM binding z-score reported for the sequence "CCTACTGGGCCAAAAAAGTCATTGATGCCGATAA" is 0.1 or above.
Result string: criterion not met

Query string: Confirm if PBM binding z-score reported for the sequence "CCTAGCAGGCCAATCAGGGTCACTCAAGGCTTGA" is 0.1 or above.
Result string: criterion not met

Query string: Confirm if PBM binding z-score reported for the sequence "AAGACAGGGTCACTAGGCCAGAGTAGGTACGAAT" is 0.1 or above.
Result string: criterion met

====

Test system: PPARg:RXRa 90nM:30nM, anti-RXR (NR concentration 90 nM, RXRa partner concentration 30 nM)
experiment-notes: PBM binding z-score (relative to random genomic background probes); higher = stronger binding; sequences stand for … in GC…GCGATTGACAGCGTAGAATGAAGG
Reported PBM binding z-score values for a set of sequences
The response must contain the number and no unit.

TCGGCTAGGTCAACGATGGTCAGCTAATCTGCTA :: 2.03

Query string: Which PBM binding z-score is reported for this sequence? "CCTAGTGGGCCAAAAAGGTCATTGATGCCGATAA"
Result string: 3.24

Query string: Which PBM binding z-score is reported for this sequence? "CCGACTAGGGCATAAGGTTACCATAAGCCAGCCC"
Result string: 3.27

Query string: Which PBM binding z-score is reported for this sequence? "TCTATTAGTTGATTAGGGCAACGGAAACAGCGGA"
Result string: 3

====

Tested on: PPARg DBDmut:RXRa IVT, anti-PPARg (DBD mutation: PPARg1 K132A/R137A, NR concentration 270 nM, RXRa partner concentration 90 nM)
experiment-notes: PBM binding z-score (relative to random genomic background probes); higher = stronger binding; sequences stand for … in GC…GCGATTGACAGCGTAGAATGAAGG
Rule: PBM binding z-score under 0.4 gives Not fulfilled, otherwise Fulfilled.

Query string: Confirm if PBM binding z-score reported for the sequence "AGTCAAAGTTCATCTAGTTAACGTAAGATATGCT" is 0.4 or above.
Result string: Fulfilled

Query string: Confirm if PBM binding z-score reported for the sequence "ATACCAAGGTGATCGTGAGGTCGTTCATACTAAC" is 0.4 or above.
Result string: Fulfilled

====

Reported PBM binding z-score values for a set of sequences
Tested on: RARb:RXRa (NR concentration 270 nM, RXRa partner concentration 90 nM)
experiment-notes: PBM binding z-score (relative to random genomic background probes); higher = stronger binding; sequences stand for … in GC…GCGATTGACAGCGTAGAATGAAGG

Here are 5 sequences together with their reported answers.
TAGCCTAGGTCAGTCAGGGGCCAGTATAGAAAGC :: 3.21
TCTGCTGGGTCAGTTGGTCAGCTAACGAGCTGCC :: 3.19
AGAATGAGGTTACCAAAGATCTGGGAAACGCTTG :: 1.98
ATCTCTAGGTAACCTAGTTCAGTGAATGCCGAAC :: 0.704
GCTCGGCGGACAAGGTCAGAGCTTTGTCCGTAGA :: 2.81

Query string: Return PBM binding z-score measured with RARb:RXRa (NR concentration 270 nM, RXRa partner concentration 90 nM) given this sequence: "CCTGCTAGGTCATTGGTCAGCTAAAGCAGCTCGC"
Result string: 3.97

Query string: Return PBM binding z-score measured with RARb:RXRa (NR concentration 270 nM, RXRa partner concentration 90 nM) given this sequence: "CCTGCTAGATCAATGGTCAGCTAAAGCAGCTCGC"
Result string: -0.116

Query string: Return PBM binding z-score measured with RARb:RXRa (NR concentration 270 nM, RXRa partner concentration 90 nM) given this sequence: "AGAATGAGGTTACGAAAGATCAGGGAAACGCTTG"
Result string: 2.21

Query string: Return PBM binding z-score measured with RARb:RXRa (NR concentration 270 nM, RXRa partner concentration 90 nM) given this sequence: "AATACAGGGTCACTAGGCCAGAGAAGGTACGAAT"
Result string: 4.2

Query string: Return PBM binding z-score measured with RARb:RXRa (NR concentration 270 nM, RXRa partner concentration 90 nM) given this sequence: "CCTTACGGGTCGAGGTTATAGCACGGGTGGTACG"
Result string: 1.97

Query string: Return PBM binding z-score measured with RARb:RXRa (NR concentration 270 nM, RXRa partner concentration 90 nM) given this sequence: "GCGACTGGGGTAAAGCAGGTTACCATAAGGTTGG"
Result string: 0.44

Query string: Return PBM binding z-score measured with RARb:RXRa (NR concentration 270 nM, RXRa partner concentration 90 nM) given this sequence: "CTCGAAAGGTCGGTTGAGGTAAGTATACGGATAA"
Result string: 2.64
